Items are presented alongside their recorded IC50.
Test system: AM-38;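 further: growth inhibition of AM-38 cells of human origin, read out by a cell viability assay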
Assay: cells
Type: functional, cell-based, Homo sapiens
Details: Homo sapiens, AM-38
Description: SANGER: Inhibition of human AM-38 cell growth in a cell viability assay.
reported endpoint: IC50

COc1cc2ncn(-c3cc(OCc4ccccc4C(F)(F)F)c(C(N)=O)s3)c2cc1OC [GW843682X]: > 256 nM
CCC/C=C/C=C/C(=O)O[C@H]1/C(=C/C(=O)OC)C[C@H]2C[C@H]([C@@H](C)O)OC(=O)C[C@H](O)C[C@@H]3C[C@H](OC(C)=O)C(C)(C)[C@](O)(C[C@@H]4C/C(=C/C(=O)OC)C[C@H](/C=C/C(C)(C)[C@]1(O)O2)O4)O3: > 8 nM
CS(=O)(=O)c1ccc(C(=O)Nc2ccc(Cl)c(-c3ccccn3)c2)c(Cl)c1: > 10000 nM
COc1cc2ncn(-c3cc(OCc4ccccc4S(C)(=O)=O)c(C#N)s3)c2cc1OC [GSK-319347A]: > 5000 nM

// data source = ChEMBL document CHEMBL1201861
